Molecular target: alternative pathway of complement activation (Homo sapiens, UniProt P01024)
Sequence (P01024 23-1663): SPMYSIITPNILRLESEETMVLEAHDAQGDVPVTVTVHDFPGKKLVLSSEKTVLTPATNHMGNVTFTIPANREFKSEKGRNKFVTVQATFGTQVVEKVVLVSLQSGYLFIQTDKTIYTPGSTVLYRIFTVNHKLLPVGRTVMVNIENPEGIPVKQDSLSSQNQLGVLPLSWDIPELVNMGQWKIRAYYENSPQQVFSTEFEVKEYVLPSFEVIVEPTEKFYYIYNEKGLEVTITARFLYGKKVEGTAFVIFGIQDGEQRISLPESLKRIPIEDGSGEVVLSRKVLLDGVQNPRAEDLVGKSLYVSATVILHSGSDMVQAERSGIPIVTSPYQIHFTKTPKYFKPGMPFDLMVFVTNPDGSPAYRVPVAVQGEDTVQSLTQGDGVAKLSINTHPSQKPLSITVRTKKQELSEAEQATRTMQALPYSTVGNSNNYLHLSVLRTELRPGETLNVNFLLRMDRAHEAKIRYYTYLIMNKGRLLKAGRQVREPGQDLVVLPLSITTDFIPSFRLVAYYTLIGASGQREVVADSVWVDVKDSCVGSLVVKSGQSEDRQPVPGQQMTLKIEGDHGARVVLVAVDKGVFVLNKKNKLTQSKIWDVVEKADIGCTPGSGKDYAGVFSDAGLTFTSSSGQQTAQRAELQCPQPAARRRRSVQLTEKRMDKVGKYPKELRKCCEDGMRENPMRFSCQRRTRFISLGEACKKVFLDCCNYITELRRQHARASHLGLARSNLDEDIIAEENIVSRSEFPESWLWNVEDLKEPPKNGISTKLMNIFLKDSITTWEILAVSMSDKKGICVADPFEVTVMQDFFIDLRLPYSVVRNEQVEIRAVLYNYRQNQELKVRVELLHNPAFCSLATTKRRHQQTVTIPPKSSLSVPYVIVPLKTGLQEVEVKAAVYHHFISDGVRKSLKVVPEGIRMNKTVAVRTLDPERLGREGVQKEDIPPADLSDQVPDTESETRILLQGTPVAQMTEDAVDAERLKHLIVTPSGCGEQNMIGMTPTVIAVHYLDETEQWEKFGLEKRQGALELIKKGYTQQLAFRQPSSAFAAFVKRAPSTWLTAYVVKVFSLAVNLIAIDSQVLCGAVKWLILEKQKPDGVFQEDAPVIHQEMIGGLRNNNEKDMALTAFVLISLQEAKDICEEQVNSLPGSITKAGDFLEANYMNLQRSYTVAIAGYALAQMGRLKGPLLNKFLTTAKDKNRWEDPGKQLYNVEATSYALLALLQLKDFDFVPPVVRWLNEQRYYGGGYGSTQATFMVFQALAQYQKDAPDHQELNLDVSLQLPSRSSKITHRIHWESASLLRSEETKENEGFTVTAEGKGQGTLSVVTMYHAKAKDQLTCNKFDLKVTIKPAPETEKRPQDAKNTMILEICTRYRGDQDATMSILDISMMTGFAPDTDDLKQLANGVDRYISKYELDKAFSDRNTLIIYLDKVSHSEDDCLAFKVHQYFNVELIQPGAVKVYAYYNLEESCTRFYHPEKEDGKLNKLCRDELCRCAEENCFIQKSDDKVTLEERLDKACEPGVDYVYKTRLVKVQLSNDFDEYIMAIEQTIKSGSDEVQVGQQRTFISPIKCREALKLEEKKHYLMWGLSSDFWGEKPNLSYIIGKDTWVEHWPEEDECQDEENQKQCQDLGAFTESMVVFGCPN
Assay: Hemolytic assay, alternative pathway: lysis of rabbit erythrocytes in normal human serum with MgEGTA
Type: cell-based
Conditions: read-out: ALTERNATIVE PATHWAY IC50
pIC50: −log10 of the molar value. Where a SMILES comes first, the peptide text is derived from it. Bridges are numbered along the chain shown (N, C = ends).
Kindly state pIC50 for each of the entries shown.

Consider the worked cases shown below.
compound: C[C@@H](O)[C@H](NC(=O)[C@@H]1CSSC[C@H](N)C(=O)N[C@@H](Cc2c[nH]cn2)C(=O)N[C@@H](Cc2c[nH]cn2)C(=O)N[C@@H](CCCNC(=N)N)C(=O)N1)C(N)=O [VII] (H-CHHRCT-NH2; disulfide 1-5)
measured_target: alternative pathway of complement activation (Homo sapiens, UniProt P01024)
result: < 3.22

compound: CC[C@H](C)[C@H](N)C(=O)N[C@@H](CSCC(N)=O)C(=O)N[C@H](C(=O)N[C@H](C(=O)N[C@@H](CCC(N)=O)C(=O)N[C@@H](CC(=O)O)C(=O)N[C@@H](Cc1c[nH]c2ccccc12)C(=O)NCC(=O)N[C@@H](Cc1c[nH]cn1)C(=O)N[C@@H](Cc1c[nH]cn1)C(=O)N[C@@H](CCCNC(=N)N)C(=O)N[C@@H](CSCC(N)=O)C(=O)N[C@H](C(N)=O)[C@@H](C)O)C(C)C)C(C)C [Peptide V]
measured_target: alternative pathway of complement activation (Homo sapiens, UniProt P01024)
result: < 3.52

compound: C[C@@H](O)[C@H](NC(=O)[C@@H]1CSSC[C@H](N)C(=O)N[C@@H](CCC(N)=O)C(=O)N[C@@H](CC(=O)O)C(=O)N[C@@H](Cc2c[nH]c3ccccc23)C(=O)NCC(=O)N[C@@H](Cc2c[nH]cn2)C(=O)N[C@@H](Cc2c[nH]cn2)C(=O)N[C@@H](CCCNC(=N)N)C(=O)N1)C(N)=O [XI] (H-CQDWGHHRCT-NH2; disulfide 1-9)
measured_target: alternative pathway of complement activation (Homo sapiens, UniProt P01024)
result: < 3.22

Request the reported pIC50 associated with CC(C)[C@@H]1NC(=O)[C@H](C(C)C)NC(=O)[C@@H](N)CSSC[C@@H](C(N)=O)NC(=O)[C@H](C)NC(=O)[C@H](Cc2c[nH]cn2)NC(=O)[C@H](Cc2c[nH]cn2)NC(=O)CNC(=O)[C@H](Cc2c[nH]c3ccccc23)NC(=O)[C@H](CC(=O)O)NC(=O)[C@H](CCC(N)=O)NC1=O [XXIII] (H-CVVQDWGHHAC-NH2; disulfide 1-11)
4.15

---

Kindly state IC50 for each of the entries shown.
Target: UniProt P01024
Test: Hemolytic assay, alternative pathway: lysis of rabbit erythrocytes in normal human serum with MgEGTA
Format: cell-based
Conditions: read-out: ALTERNATIVE PATHWAY IC50
Where a SMILES comes first, the peptide text is derived from it. Bridges are numbered along the chain shown (N, C = ends).

Consider the worked cases shown below.
molecule: CC(C)[C@@H]1NC(=O)[C@H](C(C)C)NC(=O)[C@@H](N)CSSC[C@@H](C(N)=O)NC(=O)[C@H](Cc2c[nH]cn2)NC(=O)CNC(=O)[C@H](Cc2c[nH]c3ccccc23)NC(=O)[C@H](CC(=O)O)NC(=O)[C@H](CCC(N)=O)NC1=O [XIV] (H-CVVQDWGHC-NH2; disulfide 1-9)
experimental_readout: IC50
result: > 600 µM
--
molecule: CC(C)[C@@H]1NC(=O)[C@H](C(C)C)NC(=O)[C@@H](N)CSSC[C@@H](C(N)=O)NC(=O)[C@H](Cc2c[nH]c3ccccc23)NC(=O)[C@H](CC(=O)O)NC(=O)[C@H](CCC(N)=O)NC1=O [XIII] (H-CVVQDWC-NH2; disulfide 1-7)
experimental_readout: IC50
result: > 600 µM
--
molecule: CC(C)[C@@H]1NC(=O)[C@@H](N)CSSC[C@@H](C(=O)N[C@H](C(N)=O)[C@@H](C)O)NC(=O)[C@H](CCCNC(=N)N)NC(=O)[C@H](Cc2c[nH]cn2)NC(=O)[C@H](Cc2c[nH]cn2)NC(=O)CNC(=O)[C@H](Cc2c[nH]c3ccccc23)NC(=O)[C@H](CC(=O)O)NC(=O)[C@H](CCC(N)=O)NC1=O [XII] (H-CVQDWGHHRCT-NH2; disulfide 1-10)
experimental_readout: IC50
result: > 600 µM
--
molecule: CC(C)[C@@H]1NC(=O)[C@H](C(C)C)NC(=O)[C@@H](N)CSSC[C@@H](C(N)=O)NC(=O)[C@H](CCCNC(=N)N)NC(=O)[C@H](Cc2c[nH]cn2)NC(=O)[C@H](Cc2c[nH]cn2)NC(=O)CNC(=O)[C@H](C)NC(=O)[C@H](CC(=O)O)NC(=O)[C@H](CCC(N)=O)NC1=O [XIX] (H-CVVQDAGHHRC-NH2; disulfide 1-11)
experimental_readout: IC50
result: 182 µM
--
molecule: C[C@@H](O)[C@H](NC(=O)[C@@H]1CSSC[C@H](N)C(=O)NCC(=O)N[C@@H](Cc2c[nH]cn2)C(=O)N[C@@H](Cc2c[nH]cn2)C(=O)N[C@@H](CCCNC(=N)N)C(=O)N1)C(N)=O [VIII] (H-CGHHRCT-NH2; disulfide 1-6)
experimental_readout: IC50
result: > 600 µM

# return IC50 for each item in the list
1. C[C@@H](O)[C@H](NC(=O)[C@@H]1CSSC[C@H](N)C(=O)N[C@@H](CC(=O)O)C(=O)N[C@@H](Cc2c[nH]c3ccccc23)C(=O)NCC(=O)N[C@@H](Cc2c[nH]cn2)C(=O)N[C@@H](Cc2c[nH]cn2)C(=O)N[C@@H](CCCNC(=N)N)C(=O)N1)C(N)=O [X] (H-CDWGHHRCT-NH2; disulfide 1-8)
2. C[C@@H](O)[C@H](NC(=O)[C@@H]1CSSC[C@H](N)C(=O)N[C@@H](Cc2c[nH]c3ccccc23)C(=O)NCC(=O)N[C@@H](Cc2c[nH]cn2)C(=O)N[C@@H](Cc2c[nH]cn2)C(=O)N[C@@H](CCCNC(=N)N)C(=O)N1)C(N)=O [IX] (H-CWGHHRCT-NH2; disulfide 1-7)

1. > 600 µM
2. > 600 µM

These data points were gathered from patent US6319897A.
